Measurement Target: HLA-C*04:01
Procedure Details: IEDB peptide-MHC binding, purified MHC/direct/fluorescence; filed as Kd, often an IC50 or EC50 that approximates it; bounds were set here for any values at or beyond the usual limits of such assays
Condition Description: source organism: Nostoc punctiforme PCC 73102
Quantity Measured: pKd
# pKd is unitless: minus log10 of the molar concentration; print number only

Fill in: pKd of `YWPTEGYEF` is ___
6.65

* * *

Measurement Target: HLA-A*33:01
Procedure Details: IEDB peptide-MHC binding, purified MHC/competitive/radioactivity; filed as Kd, often an IC50 or EC50 that approximates it; bounds were set here for any values at or beyond the usual limits of such assays
Condition Description: source organism: Dengue virus 4 Philippines/H241/1956
Quantity Measured: Kd
Answer shape: numeric part, then the unit.

Example results:
- Input Sequence: "NYKERMVTFK"
  Measurement Target: "HLA-A*33:01"
  Kd: "1400 nM"
- Input Sequence: "FVVTLIPLCR"
  Measurement Target: "HLA-A*33:01"
  Kd: "11.8 nM"

Proceed to the following item.
Fill in: Kd of `LMIVARHER` is ___
116 nM

* * *

Measurement Target: HLA-B*08:01
Procedure Details: IEDB peptide-MHC binding, purified MHC/competitive/fluorescence; filed as Kd, often an IC50 or EC50 that approximates it; bounds were set here for any values at or beyond the usual limits of such assays
Condition Description: source organism: Vibrio parahaemolyticus AQ3810
pKd: −log10 of the molar value.
Quantity Measured: pKd

Field: pKd (HLA-B*08:01). Entry: `HQFTSNPEV`
≤ 5.30

* * *

Measurement Target: HLA-A*24:02
Procedure Details: IEDB peptide-MHC binding, purified MHC/competitive/fluorescence; bounds were set here for any values at or beyond the usual limits of such assays
Condition Description: source organism: Zaire ebolavirus
Quantity Measured: IC50

Example results:
- Input Sequence: "TNAMVTLRK"
  Value Reported: "≥ 188 µM"
- Input Sequence: "EGAAIGLAW"
  Value Reported: "2.32 µM"
- Input Sequence: "RYQATGFGT"
  Value Reported: "≥ 99.3 µM"
- Input Sequence: "KILMNFHQK"
  Value Reported: "50.3 µM"
- Input Sequence: "KNSQKGQHI"
  Value Reported: "≥ 615 µM"

Fill in: IC50 of `LVVGEKACL` is ___
≥ 139 µM

`RDRFKRTSF` ?
18.9 µM

* * *

Measurement Target: HLA-A*31:01
Procedure Details: IEDB peptide-MHC binding, purified MHC/competitive/radioactivity; filed as Kd, often an IC50 or EC50 that approximates it; bounds were set here for any values at or beyond the usual limits of such assays
Condition Description: source organism: Mammarenavirus lassaense
Quantity Measured: pKd
# pKd is unitless: minus log10 of the molar concentration; print number only

- Input Sequence: "ICKMPLPTR"
  pKd: 7.43

Proceed to the following item.
Fill in: pKd of `TLMSIISTFH` is ___
5.06

* * *

Measurement Target: HLA-A*02:12
Procedure Details: IEDB peptide-MHC binding, purified MHC/direct/fluorescence; filed as Kd, often an IC50 or EC50 that approximates it; bounds were set here for any values at or beyond the usual limits of such assays
Condition Description: source organism: Zaire ebolavirus
Property: Kd; scope: individual sequences

Example results:
- Input Sequence: "HPLARTAKV"
  Kd: "≥ 20 µM"
- Input Sequence: "KEGKLQCRI"
  Kd: "≥ 20 µM"

Proceed to the following item.
Fill in: Kd of `RDRFKRTSF` is ___
≥ 20 µM
